Each recorded value in this set is attributed to patent US20220363763A1.

- experimental system: T1, recombinant his-tag human LAG3-ECD protein (human, UniProt P18627 23-450)
- T1 construct: extracellular domain; not shown: his tag
- T1 sequence (looked up): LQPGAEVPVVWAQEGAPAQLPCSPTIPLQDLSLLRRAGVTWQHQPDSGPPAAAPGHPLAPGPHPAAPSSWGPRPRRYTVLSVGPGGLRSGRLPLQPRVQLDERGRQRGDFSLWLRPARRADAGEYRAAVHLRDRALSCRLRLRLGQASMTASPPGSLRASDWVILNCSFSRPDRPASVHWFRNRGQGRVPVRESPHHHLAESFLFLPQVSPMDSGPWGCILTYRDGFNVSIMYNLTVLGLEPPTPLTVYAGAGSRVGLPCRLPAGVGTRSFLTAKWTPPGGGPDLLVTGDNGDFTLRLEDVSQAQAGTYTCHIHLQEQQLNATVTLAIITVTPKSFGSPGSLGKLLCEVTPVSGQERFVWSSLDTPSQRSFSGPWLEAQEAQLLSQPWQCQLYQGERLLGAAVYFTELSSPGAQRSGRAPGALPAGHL
- measurement protocol: SPR Biacore T200, capture method as Example 2.7
Listing of recorded koff by entry.
parameter measured: koff (s⁻¹)

binder	parameter measured	units symbol	recorded value
147H 3550 (antibody, V domains shown) VH: EVQLVQSGAEVKKPGASVKVSCKASGYTFTNYWLGWIKQAPGQGLEWIGDIYPGGDYINYNEKFKGKATLTADTSISTAYMELSRLRSDDTAVYYCARPNLPKDHWGQGTTVTVSS VL: DIVMTQSPLSLPVTPGEPASISCRSSKSLLHSNAITYLYWYLQKPGQSPQLLIYQVSNLASGVPDRFSGSGSGTDFTLKISRVEAEDVGVYYCAQYLELPWTFGGGTKVEIK	koff	s⁻¹	0.0085
147H 3807b (antibody, V domains shown, also called B3807b) VH: EVQLVQSGAEVKKPGASVKVSCKASGYTFTNYWLGWIKQAPGQGLEWIGDIYPGGDYIVYNEKFKGKATLTADTSISTAYMELSRLRSDDTAVYYCARPNLPKDHWGQGTTVTVSS VL: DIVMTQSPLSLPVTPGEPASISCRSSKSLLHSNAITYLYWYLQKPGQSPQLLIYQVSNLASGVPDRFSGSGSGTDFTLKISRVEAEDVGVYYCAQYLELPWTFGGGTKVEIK	koff	s⁻¹	0.002
147H 3794 (antibody, V domains shown) VH: EVQLVQSGAEVKKPGASVKVSCKASGYLFTNYWLGWIKQAPGQGLEWIGDIYPGGDYIVYNEKFKGKATLTADTSISTAYMELSRLRSDDTAVYYCARPNLPGDYWGQGTTVTVSS VL: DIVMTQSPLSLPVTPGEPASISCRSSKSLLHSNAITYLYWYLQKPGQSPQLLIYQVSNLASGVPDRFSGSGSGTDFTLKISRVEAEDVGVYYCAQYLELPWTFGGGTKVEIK	koff	s⁻¹	0.0027
